experimental-system: Protein cereblon/Protein deacetylase HDAC6 (Homo sapiens, UniProt Q9UBN7+Q96SW2)
Sequence (Q96SW2 whole entry, looked up): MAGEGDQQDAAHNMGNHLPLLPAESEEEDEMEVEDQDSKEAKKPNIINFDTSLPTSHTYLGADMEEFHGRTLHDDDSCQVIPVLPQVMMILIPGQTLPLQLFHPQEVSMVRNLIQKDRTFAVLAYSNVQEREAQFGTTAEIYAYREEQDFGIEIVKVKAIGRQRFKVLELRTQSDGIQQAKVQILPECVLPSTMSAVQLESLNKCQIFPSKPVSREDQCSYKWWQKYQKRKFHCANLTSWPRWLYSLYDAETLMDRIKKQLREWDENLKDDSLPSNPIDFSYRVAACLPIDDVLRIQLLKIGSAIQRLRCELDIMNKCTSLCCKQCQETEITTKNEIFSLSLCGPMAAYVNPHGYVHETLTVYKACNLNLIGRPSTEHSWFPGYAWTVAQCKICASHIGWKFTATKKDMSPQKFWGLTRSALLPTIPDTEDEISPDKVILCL
Sequence (Q9UBN7 whole entry, looked up): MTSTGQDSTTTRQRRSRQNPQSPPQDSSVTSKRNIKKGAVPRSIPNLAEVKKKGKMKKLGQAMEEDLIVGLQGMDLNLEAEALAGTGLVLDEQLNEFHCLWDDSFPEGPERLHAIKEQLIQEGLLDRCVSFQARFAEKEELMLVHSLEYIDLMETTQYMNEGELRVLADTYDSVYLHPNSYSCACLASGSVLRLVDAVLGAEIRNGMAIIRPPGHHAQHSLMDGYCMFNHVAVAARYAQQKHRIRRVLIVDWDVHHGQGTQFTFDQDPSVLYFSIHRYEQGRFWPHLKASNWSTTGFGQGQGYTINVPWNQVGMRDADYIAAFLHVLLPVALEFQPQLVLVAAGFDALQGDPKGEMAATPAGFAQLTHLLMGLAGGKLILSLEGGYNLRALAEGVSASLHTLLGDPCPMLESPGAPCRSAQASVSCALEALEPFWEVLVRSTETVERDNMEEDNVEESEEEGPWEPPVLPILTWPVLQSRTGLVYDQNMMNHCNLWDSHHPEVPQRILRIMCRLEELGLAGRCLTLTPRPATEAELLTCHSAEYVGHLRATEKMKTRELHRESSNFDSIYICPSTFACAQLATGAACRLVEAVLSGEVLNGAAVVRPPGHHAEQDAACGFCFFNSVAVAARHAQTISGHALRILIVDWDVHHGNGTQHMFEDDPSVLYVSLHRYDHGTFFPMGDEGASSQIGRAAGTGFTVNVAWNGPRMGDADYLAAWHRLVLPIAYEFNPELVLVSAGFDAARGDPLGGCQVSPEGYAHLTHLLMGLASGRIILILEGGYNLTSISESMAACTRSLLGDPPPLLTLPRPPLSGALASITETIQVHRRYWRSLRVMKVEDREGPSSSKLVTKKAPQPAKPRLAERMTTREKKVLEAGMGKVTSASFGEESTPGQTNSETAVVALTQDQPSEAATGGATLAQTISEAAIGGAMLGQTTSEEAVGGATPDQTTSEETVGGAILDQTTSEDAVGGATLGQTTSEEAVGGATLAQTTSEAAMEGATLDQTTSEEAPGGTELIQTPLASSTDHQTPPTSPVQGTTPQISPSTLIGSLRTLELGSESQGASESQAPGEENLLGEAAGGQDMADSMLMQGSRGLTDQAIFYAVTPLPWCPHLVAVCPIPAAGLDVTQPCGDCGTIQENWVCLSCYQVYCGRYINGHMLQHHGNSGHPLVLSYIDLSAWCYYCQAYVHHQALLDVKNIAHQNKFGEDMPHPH
experimental-protocol: Induction of CRBN ubiquitin ligase-mediated HDAC6 degradation in human MCF7 cells assessed as decrease in HDAC6 levels at 5 uM after 12 hrs by immunoblotting analysis
Format: cell-based
Activity calls are given as the source filed them. The calls are words filed in the database; no cut-off is given here.
measurement-name: Activity

> print(dat)
                                   molecule  assay.result
1  O=C(CCCCCCC(=O)N/N=C/c1ccc(OCCOCCn2cc(CNc3cccc4c3C(=O)N(C3CCC(=O)NC3=O)C4=O)nn2)cc1)NO (centres undefined)        Active
2  O=C(CCCCCCC(=O)N/N=C/c1ccc(OCCOCCOCCOCCn2cc(CNc3cccc4c3C(=O)N(C3CCC(=O)NC3=O)C4=O)nn2)cc1)NO (centres undefined)        Active
3  O=C(CCCCCCC(=O)N/N=C/c1ccc(OCCn2cc(CNc3cccc4c3C(=O)N(C3CCC(=O)NC3=O)C4=O)nn2)cc1)NO (centres undefined)        Active
4  O=C(CCCCCCC(=O)N/N=C/c1ccc(OCCOCCOCCn2cc(CNc3cccc4c3C(=O)N(C3CCC(=O)NC3=O)C4=O)nn2)cc1)NO (centres undefined)        Active
